# tested.on: Cytochrome P450 3A4 (Homo sapiens) (UniProt P08684)
# Sequence (P08684 whole entry, looked up): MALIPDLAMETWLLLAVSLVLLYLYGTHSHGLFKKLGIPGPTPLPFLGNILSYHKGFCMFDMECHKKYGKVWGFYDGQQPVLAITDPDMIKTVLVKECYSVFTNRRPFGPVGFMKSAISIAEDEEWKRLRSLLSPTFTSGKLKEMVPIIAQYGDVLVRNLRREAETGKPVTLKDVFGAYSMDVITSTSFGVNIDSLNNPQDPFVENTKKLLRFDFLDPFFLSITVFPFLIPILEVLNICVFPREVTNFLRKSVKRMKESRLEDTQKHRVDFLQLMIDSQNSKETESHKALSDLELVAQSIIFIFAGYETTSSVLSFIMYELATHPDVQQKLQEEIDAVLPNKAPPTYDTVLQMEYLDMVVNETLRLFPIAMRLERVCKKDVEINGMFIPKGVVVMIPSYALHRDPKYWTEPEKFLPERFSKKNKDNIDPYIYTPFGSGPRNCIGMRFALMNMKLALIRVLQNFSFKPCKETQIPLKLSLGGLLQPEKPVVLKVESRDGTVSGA
# assay.summary: Cytochrome panel assay with activity outcomes; for activity, negative = inhibition: % is set by controls: 0 for no effect and ±100 for the full control effect
# experimental.setup: recombinant CYP, pro-luciferin dealkylation, luminescence, p450-cyp3a4; series mostly up to 57.1 µM
Screen size: about 16,000 compounds; about 5,100 (32%) were called active. Inconclusive results (about 25%) are left out. Some of the results follow.
measure.name: activity, negative = inhibition

Solved entries (count: 3):
molecule: Nc1c(OCC(=O)O)ccc2cc(S(=O)(=O)O)ccc12
measure.name: activity, negative = inhibition
result: -9.68% [at 11.4 µM] (inactive)
--
molecule: N=C(N)C(N=Nc1ccccc1)C(=N)N (configuration not stated)
measure.name: activity, negative = inhibition
result: -1.93% [at 11.4 µM] (inactive)
--
molecule: CC1CCc2c(C(=O)Nc3nccs3)csc2C1 (configuration not stated)
measure.name: activity, negative = inhibition
result: -19.8% [at 11.4 µM] (inactive)

// query Quick one: activity, negative = inhibition for COc1cc2c3cc1Oc1cc(ccc1O)C[C@@H]1c4c(cc(OC)c(O)c4Oc4ccc(cc4)C[C@H]3[N+](C)(C)CC2)CC[N+]1(C)C ?
// result 0.655% [at 11.4 µM] (inactive)

// query Now give it for O=C(N[C@@]1(C(=O)O)C[C@@H]1c1ccccc1)c1ccccc1 too.
// result -6.56% [at 11.4 µM] (inactive)

// query Now give it for c1cc(NNc2cccc(-c3nn[nH]n3)c2)cc(-c2nn[nH]n2)c1 too.
// result -11.1% [at 11.4 µM] (inactive)

====

# tested.on: Cytochrome P450 3A4 (Homo sapiens) (UniProt P08684)
# assay.summary: Cytochrome panel assay with activity outcomes
# experimental.setup: recombinant CYP, pro-luciferin dealkylation, luminescence, p450-cyp3a4; series mostly up to 57.1 µM
In all, about 16,000 compounds went through this assay and about 5,100 (32%) were called active. Not shown: some 25% with an inconclusive outcome. This is one part of the list.
measure.name: AC50

Solved entries (count: 5):
molecule: Cc1cccc(CNc2ccnc(-c3ccc(C(=O)N(C)C)cc3)n2)c1
AC50: 3160 nM (active)

molecule: O=C(NCCCN1CCc2ccccc2C1)Nc1ccc(Cl)cc1
AC50: inactive

molecule: CN(C)C(=O)c1ccc(-c2nccc(NCc3cccnc3)n2)cc1
AC50: 15800 nM (active)

molecule: COc1ccc(C(=O)N/C(=C/c2cccs2)C(=O)NCCCn2ccnc2)cc1OC
AC50: 1580 nM (active)

molecule: Cn1nccc1C(=O)Nc1ccc(Cl)cc1
AC50: inactive

Next molecule, please.
// query Quick one: AC50 for Nc1ccc(Oc2ccc3nc(-c4ccccc4)c(-c4ccc([N+](=O)[O-])cc4)nc3c2)cc1 ?
// result 3550 nM (active)

====

# tested.on: Cytochrome P450 3A4 (Homo sapiens) (UniProt P08684)
# assay.summary: Cytochrome panel assay with activity outcomes
# experimental.setup: recombinant CYP, pro-luciferin dealkylation, luminescence, p450-cyp3a4; series mostly up to 57.1 µM
Out of some 16,000 compounds screened, about 5,100 (32%) were called active. About 25% were inconclusive and are not listed. This is one part of the list.
measure.name: AC50

Solved entries (count: 4):
compound: CCOc1ccc2[nH]c(=O)c(CN(CCc3ccccc3)C(=O)N3CCOCC3)cc2c1
AC50: 7.94 µM (active)
--
compound: Cc1cnc(CNc2ncncc2-c2ccccc2CN(C)C)cn1
AC50: 3.16 µM (active)
--
compound: Cc1cnc(CNc2ncncc2-c2ccccc2C)cn1
AC50: 1 µM (active)
--
compound: CCN(CC)S(=O)(=O)c1ccc2c(c1)nc(SCC(=O)N1CCOCC1)n2-c1ccccc1OC
AC50: 3.98 µM (active)

// query Quick one: AC50 for CCOc1ccc2[nH]c(=O)c(CN(CCc3ccccc3)C(=O)N3CCCC3)cc2c1 ?
// result 3.55 µM (active)

// query Now give it for NCCS(=O)O too.
// result inactive

Data provenance is PubChem BioAssay AID1851.
